Target: NMDA receptor subunits 1A/2A (Rattus norvegicus, UniProt P35439+Q00959)
Construct: clones from Dr. P. H. Seeburg)
Sequence (Q00959 20-1464 limits assumed, other chains not shown): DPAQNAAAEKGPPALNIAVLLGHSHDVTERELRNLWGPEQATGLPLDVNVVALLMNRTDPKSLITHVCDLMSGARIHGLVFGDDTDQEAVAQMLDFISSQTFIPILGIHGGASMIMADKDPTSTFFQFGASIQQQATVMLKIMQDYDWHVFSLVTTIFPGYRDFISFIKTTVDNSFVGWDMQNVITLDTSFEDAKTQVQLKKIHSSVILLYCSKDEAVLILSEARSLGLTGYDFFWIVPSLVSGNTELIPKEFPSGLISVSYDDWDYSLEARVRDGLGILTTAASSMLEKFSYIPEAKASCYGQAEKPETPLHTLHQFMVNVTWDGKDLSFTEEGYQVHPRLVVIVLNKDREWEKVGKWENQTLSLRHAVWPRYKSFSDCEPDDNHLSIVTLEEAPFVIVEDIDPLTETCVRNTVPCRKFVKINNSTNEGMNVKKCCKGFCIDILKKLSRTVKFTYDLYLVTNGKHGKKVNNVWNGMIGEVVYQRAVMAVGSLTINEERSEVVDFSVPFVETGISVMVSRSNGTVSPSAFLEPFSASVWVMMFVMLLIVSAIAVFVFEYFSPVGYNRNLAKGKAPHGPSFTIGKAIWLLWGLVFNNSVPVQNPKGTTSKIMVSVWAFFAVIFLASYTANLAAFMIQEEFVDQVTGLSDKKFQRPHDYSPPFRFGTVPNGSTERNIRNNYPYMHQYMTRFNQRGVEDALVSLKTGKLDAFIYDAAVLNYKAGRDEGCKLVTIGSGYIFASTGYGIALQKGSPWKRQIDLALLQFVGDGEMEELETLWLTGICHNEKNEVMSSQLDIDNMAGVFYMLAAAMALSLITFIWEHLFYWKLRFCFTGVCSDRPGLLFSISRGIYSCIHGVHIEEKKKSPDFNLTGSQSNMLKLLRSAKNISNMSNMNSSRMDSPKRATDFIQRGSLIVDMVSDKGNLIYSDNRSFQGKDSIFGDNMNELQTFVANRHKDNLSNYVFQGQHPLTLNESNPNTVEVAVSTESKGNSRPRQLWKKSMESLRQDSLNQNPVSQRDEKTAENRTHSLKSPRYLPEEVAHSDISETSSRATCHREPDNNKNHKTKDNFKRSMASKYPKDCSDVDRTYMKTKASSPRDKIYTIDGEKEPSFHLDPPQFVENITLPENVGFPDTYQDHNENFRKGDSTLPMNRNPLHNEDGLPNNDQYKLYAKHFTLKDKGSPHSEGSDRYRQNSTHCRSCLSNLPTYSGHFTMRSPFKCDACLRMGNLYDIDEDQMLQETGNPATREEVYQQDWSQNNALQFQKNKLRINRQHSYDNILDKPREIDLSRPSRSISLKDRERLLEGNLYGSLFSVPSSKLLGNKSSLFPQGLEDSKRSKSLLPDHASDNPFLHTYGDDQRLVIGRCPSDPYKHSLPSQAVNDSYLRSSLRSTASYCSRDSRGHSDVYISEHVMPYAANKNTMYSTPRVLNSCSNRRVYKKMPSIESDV
Test: Electrophysiological assay at NMDA receptor subunits expressed in Xenopus oocytes, 1A/2A
Details: glutamate 100 μm and glycine 1-100 μm
Structures can show the parent of a compound that is named as a salt.
Items are presented alongside their recorded pIC50.
Keep it numeric: pIC50 is minus log10 of the concentration in mol/L.

Some solved cases for reference:
compound: Nc1ccc(OCCN2CCC(Cc3ccccc3)CC2)cc1[N+](=O)[O-]
pIC50: 4.05
--
compound: Oc1ccc(OCCN2CCC(Cc3ccc4c(c3)CCCC4)CC2)cc1 [Ex. 139, hydrochloride]
pIC50: 4.15
--
compound: Oc1cccc(OCCN2CCC(Cc3ccc(F)cc3)CC2)c1 [Ex. 159, hydrochloride]
pIC50: 3.89
--
compound: Cl.Cl.Oc1ccc(OCCN2CCC(Cc3ccccn3)CC2)cc1 [Ex. 125, dihydrochloride]
pIC50: 4.12
--
compound: Oc1ccc2cc(OCCN3CCC(Cc4ccc(F)cc4)CC3)ccc2c1
pIC50: 4.60
--
compound: Nc1c(OCCN2CCC(Cc3ccccc3)CC2)cccc1[N+](=O)[O-]
pIC50: 4.22
--
compound: Cl.Oc1ccc(SCCN2CCC(Cc3ccc(F)cc3)CC2)cc1 [Ex. 165, hydrochloride]
pIC50: 4.19
--
compound: Oc1ccc(CCCN2CCC(Cc3ccc(Cl)cc3)CC2)cc1 [Ex. 107, hydrochloride]
pIC50: 4.22
--
compound: Clc1ccc(CC2CCN(CCCOc3ccccc3)CC2)cc1 [Ex. 30, hydrobromide]
pIC50: 4.30
--
compound: Cc1ccc(CC2CCN(CCOc3ccc(F)cc3)CC2)cc1 [Ex. 116, hydrochloride]
pIC50: 4.15

Query (compound): Cc1ccc(CC2CCN(CCOc3ccc(O)c(F)c3)CC2)cc1 [Ex. 151, hydrochloride] ; field requested: pIC50
4.28

Try the compound Fc1ccc(OCCN2CCC(Cc3cccc(F)c3)CC2)cc1 [Ex. 113, hydrochloride]
3.70

Again, but for Oc1ccc(OCCN2CCC(c3ccccc3)CC2)cc1 [Ex. 127, hydrochloride]
4.15

Moving on to Fc1cccc(OCCCN2CCC(Cc3ccccc3)CC2)c1 [Ex. 22, hydrobromide]
4.05

How about `O=c1[nH]c2cccc(OCCN3CCC(Cc4ccccc4)CC3)c2[nH]c1=O` ?
4.22

====

Molecular target: NMDA receptor subunits 1A/2B (Rattus norvegicus, UniProt P35439+Q00960)
Construct: expressed in transfected cells; host or cells: Xenopus laevis oocytes (cRNA injection; clones from Dr. P. H. Seeburg)
Sequence (Q00960 27-1482, other chains not shown): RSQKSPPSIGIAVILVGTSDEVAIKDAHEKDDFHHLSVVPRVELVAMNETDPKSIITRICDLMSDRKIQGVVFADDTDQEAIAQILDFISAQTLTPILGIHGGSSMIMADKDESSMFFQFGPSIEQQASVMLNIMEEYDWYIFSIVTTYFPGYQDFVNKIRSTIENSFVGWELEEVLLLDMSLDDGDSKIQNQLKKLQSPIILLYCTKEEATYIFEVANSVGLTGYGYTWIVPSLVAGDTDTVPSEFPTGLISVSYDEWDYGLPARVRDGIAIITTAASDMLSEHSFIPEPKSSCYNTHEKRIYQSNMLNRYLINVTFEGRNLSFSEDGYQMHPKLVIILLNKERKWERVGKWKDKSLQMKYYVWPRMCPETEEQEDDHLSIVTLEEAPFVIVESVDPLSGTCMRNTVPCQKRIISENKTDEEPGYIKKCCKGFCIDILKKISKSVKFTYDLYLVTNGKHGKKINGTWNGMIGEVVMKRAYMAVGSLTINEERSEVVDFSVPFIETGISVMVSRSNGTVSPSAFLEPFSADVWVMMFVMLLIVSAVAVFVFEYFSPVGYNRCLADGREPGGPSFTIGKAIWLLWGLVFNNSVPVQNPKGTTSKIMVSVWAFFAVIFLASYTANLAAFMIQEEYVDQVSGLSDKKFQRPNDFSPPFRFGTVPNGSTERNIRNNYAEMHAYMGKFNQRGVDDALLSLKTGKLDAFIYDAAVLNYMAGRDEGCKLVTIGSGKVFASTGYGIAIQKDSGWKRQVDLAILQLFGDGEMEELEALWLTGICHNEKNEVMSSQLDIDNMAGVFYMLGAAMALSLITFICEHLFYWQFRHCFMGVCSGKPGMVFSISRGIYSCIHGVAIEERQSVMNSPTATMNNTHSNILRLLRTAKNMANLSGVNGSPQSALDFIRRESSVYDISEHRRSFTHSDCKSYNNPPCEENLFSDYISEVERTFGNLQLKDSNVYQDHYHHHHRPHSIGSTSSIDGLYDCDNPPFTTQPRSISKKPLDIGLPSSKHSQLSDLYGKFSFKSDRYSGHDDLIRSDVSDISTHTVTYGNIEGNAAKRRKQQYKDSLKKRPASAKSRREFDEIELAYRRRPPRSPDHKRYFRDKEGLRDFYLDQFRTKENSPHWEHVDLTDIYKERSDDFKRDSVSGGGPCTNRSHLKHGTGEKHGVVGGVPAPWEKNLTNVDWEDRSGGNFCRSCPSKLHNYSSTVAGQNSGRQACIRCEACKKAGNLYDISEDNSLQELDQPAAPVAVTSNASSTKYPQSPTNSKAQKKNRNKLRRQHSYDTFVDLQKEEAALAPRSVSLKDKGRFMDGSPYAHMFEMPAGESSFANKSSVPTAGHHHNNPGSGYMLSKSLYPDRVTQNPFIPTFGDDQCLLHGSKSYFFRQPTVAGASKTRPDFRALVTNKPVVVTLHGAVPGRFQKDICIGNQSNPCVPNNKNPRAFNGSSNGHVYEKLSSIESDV
Assay: Electrophysiological assay at NMDA receptor subunits expressed in Xenopus oocytes, 1A/2B
Format: cell-based
Conditions: Xenopus oocytes; glutamate 100 μm and glycine 1-100 μm; read-out: Subunits IC50, 1A/2B
Structures can show the parent of a compound that is named as a salt.
Reported IC50 by item:
Express the result in nM but write the number alone.

Here is how some compounds turned out for IC50.
compound: Clc1ccc(CC2CCN(CCCOc3ccccc3)CC2)cc1 [Ex. 30, hydrobromide]
targetOrSystem: NMDA receptor subunits 1A/2B (Rattus norvegicus, UniProt P35439+Q00960)
measurementUnits: nM
observedMeasurement: 800
//
compound: O=C1Cc2cc(OCCN3CCC(Cc4ccccc4)CC3)ccc2N1
targetOrSystem: NMDA receptor subunits 1A/2B (Rattus norvegicus, UniProt P35439+Q00960)
measurementUnits: nM
observedMeasurement: 60
//
compound: NC(=O)Cc1cccc(OCCN2CCC(Cc3ccccc3)CC2)c1
targetOrSystem: NMDA receptor subunits 1A/2B (Rattus norvegicus, UniProt P35439+Q00960)
measurementUnits: nM
observedMeasurement: 350
//
compound: CC(COc1ccccc1)N1CCC(Cc2ccccc2)CC1 (stereo not drawn) [Ex. 21, hydrobromide]
targetOrSystem: NMDA receptor subunits 1A/2B (Rattus norvegicus, UniProt P35439+Q00960)
measurementUnits: nM
observedMeasurement: 2500
//
compound: O=c1[nH]c2ccc(OCCN3CC=C(Cc4ccccc4)CC3)cc2[nH]1
targetOrSystem: NMDA receptor subunits 1A/2B (Rattus norvegicus, UniProt P35439+Q00960)
measurementUnits: nM
observedMeasurement: 100
//
compound: COc1ccc(C2CCN(CCCCc3ccccc3)CC2)cc1
targetOrSystem: NMDA receptor subunits 1A/2B (Rattus norvegicus, UniProt P35439+Q00960)
measurementUnits: nM
observedMeasurement: 170000
//
compound: O=[N+]([O-])c1ccccc1OCCN1CCC(Cc2ccccc2)CC1
targetOrSystem: NMDA receptor subunits 1A/2B (Rattus norvegicus, UniProt P35439+Q00960)
measurementUnits: nM
observedMeasurement: 6000
//
compound: Fc1ccc(CC2CCN(CCOc3ccc4[nH]c(=S)[nH]c4c3)CC2)cc1
targetOrSystem: NMDA receptor subunits 1A/2B (Rattus norvegicus, UniProt P35439+Q00960)
measurementUnits: nM
observedMeasurement: 20

Please turn your attention to the following entry.
Reported IC50 for Fc1ccc(OCCN2CCC(Cc3ccc(Cl)cc3)CC2)cc1 [Ex. 25, hydrobromide] : what is it?
1000
